Here the recorded pKi is given for each entry.
Measured Target: memapsin 2 (Homo sapiens, UniProt P56817)
Sequence (P56817 46-501): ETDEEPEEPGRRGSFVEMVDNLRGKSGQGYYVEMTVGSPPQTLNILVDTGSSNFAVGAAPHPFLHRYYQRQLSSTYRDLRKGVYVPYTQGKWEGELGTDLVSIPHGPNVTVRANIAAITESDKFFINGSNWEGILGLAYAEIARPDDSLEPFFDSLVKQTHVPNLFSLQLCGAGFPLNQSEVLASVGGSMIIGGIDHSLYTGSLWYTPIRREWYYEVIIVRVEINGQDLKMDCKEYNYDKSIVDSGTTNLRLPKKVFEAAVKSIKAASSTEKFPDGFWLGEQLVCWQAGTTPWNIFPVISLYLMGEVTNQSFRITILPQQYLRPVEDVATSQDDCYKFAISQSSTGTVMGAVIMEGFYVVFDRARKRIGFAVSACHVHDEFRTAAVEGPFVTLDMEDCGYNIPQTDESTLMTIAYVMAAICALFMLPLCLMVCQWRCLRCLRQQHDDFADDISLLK
Assay Remarks: Inhibition of memapsin 2 catalytic activity (Ki)
Type: biochemical
Setup Conditions: memapsin 2, pH 4, 37° C.; read-out: M2K
pKi: −log10 of the molar value.

CC(NC(=O)c1cc(C(=O)NC(Cc2ccccc2)C(O)CNCc2cc(F)cc(F)c2)cc(N(C)S(C)(=O)=O)c1)c1ccccc1 (stereo not drawn): > 6.52
CC(NC(=O)c1cc(C(=O)NC(Cc2ccccc2)C(O)CNCc2cccc(CF)c2)cc(N(C)S(C)(=O)=O)c1)c1ccccc1 (stereo not drawn): > 6.52
Cc1cccc(CNCC(O)C(Cc2ccccc2)NC(=O)c2cc(C(=O)NC(C)c3ccccc3)cc(N(C)S(C)(=O)=O)c2)c1 (stereo not drawn): > 6.52
Cc1csc(CN(C)C(=O)c2cccc(C(=O)NC(Cc3ccccc3)C(O)CNCc3cncc(C(C)C)c3)c2)n1 (stereo not drawn): > 6.52
CC(C)c1cccc(CNCC(O)C(Cc2ccccc2)NC(=O)c2cc(C(=O)NC(C)c3ccccc3)cc(N(C)S(C)(=O)=O)c2)c1 (stereo not drawn): > 6.52

query: Name the recorded pKi for CCN(Cc1nc(C)cs1)C(=O)c1cccc(C(=O)NC(Cc2ccccc2)C(O)CNCc2cccc(OC)c2)c1 (stereo not drawn) .
result: > 6.52

query: Name the recorded pKi for COc1ccc(CCNCC(O)C(Cc2ccccc2)NC(=O)c2cc(C(=O)NC(C)c3ccccc3)cc(N(C)S(C)(=O)=O)c2)cc1 (stereo not drawn) .
result: > 6.52

query: Name the recorded pKi for COc1cccc(CNCC(O)C(Cc2ccccc2)NC(=O)c2cccc(C(=O)N(C)Cc3cc(C)no3)c2)c1 (stereo not drawn) .
result: < 6.30

query: Name the recorded pKi for COc1cccc(CNCC(O)C(Cc2ccccc2)NC(=O)c2cc(C(=O)NC(C)c3nc(CO)co3)cc(N(C)S(C)(=O)=O)c2)c1 (stereo not drawn) .
result: > 6.52

Hey, just so you know, these numbers are from patent US7504420B2.
